target: Aminopeptidase N (Plasmodium falciparum (isolate 3D7)) (UniProt O96935); test: malaria alanyl aminopeptidase activity blockers – biochemical, fluorogenic H-Leu-NHMec substrate, 1536-well (AID 1445); conditions: recombinant M1AAP, H-Leu-NHMec fluorogenic kinetic assay; at 30 µM, hits give high values unless noted;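 also: plate controls were DMSO full reaction for no effect and no enzyme background for full effect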
Sequence (O96935 whole entry, looked up): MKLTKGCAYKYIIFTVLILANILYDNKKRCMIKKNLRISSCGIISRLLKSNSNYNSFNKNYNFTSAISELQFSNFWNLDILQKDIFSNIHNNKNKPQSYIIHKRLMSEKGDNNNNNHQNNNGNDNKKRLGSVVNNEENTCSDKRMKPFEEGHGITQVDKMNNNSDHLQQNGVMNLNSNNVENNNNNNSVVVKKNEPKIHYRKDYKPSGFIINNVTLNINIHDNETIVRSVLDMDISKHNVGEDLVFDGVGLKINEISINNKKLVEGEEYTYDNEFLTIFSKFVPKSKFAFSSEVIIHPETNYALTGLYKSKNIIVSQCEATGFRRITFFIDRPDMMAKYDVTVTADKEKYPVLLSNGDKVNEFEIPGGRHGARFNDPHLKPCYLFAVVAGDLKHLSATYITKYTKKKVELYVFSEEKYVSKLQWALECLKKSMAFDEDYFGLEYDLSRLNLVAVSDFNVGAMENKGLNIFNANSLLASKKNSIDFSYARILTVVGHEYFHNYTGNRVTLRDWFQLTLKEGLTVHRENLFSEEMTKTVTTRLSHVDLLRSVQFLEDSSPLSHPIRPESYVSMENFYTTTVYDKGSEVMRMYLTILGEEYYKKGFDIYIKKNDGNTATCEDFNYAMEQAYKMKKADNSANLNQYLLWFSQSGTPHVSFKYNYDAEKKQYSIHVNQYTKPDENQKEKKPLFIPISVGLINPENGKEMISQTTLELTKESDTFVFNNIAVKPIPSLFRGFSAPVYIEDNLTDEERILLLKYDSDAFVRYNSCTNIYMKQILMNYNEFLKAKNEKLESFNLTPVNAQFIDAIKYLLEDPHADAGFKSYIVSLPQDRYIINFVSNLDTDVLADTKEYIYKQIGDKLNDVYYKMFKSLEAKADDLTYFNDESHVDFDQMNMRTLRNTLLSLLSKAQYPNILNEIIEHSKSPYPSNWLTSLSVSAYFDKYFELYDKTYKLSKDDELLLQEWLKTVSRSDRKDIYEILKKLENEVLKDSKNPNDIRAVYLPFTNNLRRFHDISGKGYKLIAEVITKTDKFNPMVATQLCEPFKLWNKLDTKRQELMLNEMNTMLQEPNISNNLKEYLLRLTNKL
Out of some 220,000 compounds screened, about 910 (0.41%) were called active. This is one part of a sample in which actives are shown more often than they occur. Potency and affinity values are given separately.
Use label 1 when the recorded inhibition is no lower than 5%; use label 0 when it is lower.

[[record]]
molecular_string = "NC(=O)CSc1nnc(Cc2cccs2)n1C1CCCCC1"
test_target = "Aminopeptidase N (Plasmodium falciparum (isolate 3D7)) (UniProt O96935)"
category = "label 0"

[[record]]
molecular_string = "COc1cc(-c2nc3ccc4ccccc4c3c3c2CCC3)ccc1O"
test_target = "Aminopeptidase N (Plasmodium falciparum (isolate 3D7)) (UniProt O96935)"
category = "label 1"

[[record]]
molecular_string = "Cc1oc(C(=O)O)cc1COc1ccc2c3c(c(=O)oc2c1)CCC3"
test_target = "Aminopeptidase N (Plasmodium falciparum (isolate 3D7)) (UniProt O96935)"
category = "label 1"

[[record]]
molecular_string = "O=C1NC(c2ccccc2)=C(c2ccccc2)C1=O"
test_target = "Aminopeptidase N (Plasmodium falciparum (isolate 3D7)) (UniProt O96935)"
category = "label 1"

[[record]]
molecular_string = "Cc1ccccc1-n1c(SC/C(O)=C(\\C#N)c2nc3ccccc3[nH]2)nnc1-c1ccncc1"
test_target = "Aminopeptidase N (Plasmodium falciparum (isolate 3D7)) (UniProt O96935)"
category = "label 1"

[[record]]
molecular_string = "Cc1cc(C)c(C#N)c(SCC(=O)c2cccs2)n1"
test_target = "Aminopeptidase N (Plasmodium falciparum (isolate 3D7)) (UniProt O96935)"
category = "label 0"

[[record]]
molecular_string = "CC(=O)CSc1nc(-c2cccs2)c(C#N)c(=O)[nH]1"
test_target = "Aminopeptidase N (Plasmodium falciparum (isolate 3D7)) (UniProt O96935)"
category = "label 1"

[[record]]
molecular_string = "COC(=O)c1cn(-c2ccccc2)c(=O)c2ccccc12"
test_target = "Aminopeptidase N (Plasmodium falciparum (isolate 3D7)) (UniProt O96935)"
category = "label 0"

[[record]]
molecular_string = "N#CCSc1nnc(Cc2cccs2)n1C1CCCCC1"
test_target = "Aminopeptidase N (Plasmodium falciparum (isolate 3D7)) (UniProt O96935)"
category = "label 0"

[[record]]
molecular_string = "Cc1nc(SCC(=O)N2c3ccccc3Sc3ccccc32)n[nH]1"
test_target = "Aminopeptidase N (Plasmodium falciparum (isolate 3D7)) (UniProt O96935)"
category = "label 0"

[[record]]
molecular_string = "CCOc1ccc2nc(NC(=O)CSc3ccc(Cl)cc3)sc2c1"
test_target = "Aminopeptidase N (Plasmodium falciparum (isolate 3D7)) (UniProt O96935)"
category = "label 0"

[[record]]
molecular_string = "O=C(CSc1nc(O)cc(=O)[nH]1)N1c2ccccc2Sc2ccccc21"
test_target = "Aminopeptidase N (Plasmodium falciparum (isolate 3D7)) (UniProt O96935)"
category = "label 1"

